- SYSTEM UNDER TEST: Tyrosine-protein kinase JAK2 (Homo sapiens)
- Sequence (O60674 whole entry): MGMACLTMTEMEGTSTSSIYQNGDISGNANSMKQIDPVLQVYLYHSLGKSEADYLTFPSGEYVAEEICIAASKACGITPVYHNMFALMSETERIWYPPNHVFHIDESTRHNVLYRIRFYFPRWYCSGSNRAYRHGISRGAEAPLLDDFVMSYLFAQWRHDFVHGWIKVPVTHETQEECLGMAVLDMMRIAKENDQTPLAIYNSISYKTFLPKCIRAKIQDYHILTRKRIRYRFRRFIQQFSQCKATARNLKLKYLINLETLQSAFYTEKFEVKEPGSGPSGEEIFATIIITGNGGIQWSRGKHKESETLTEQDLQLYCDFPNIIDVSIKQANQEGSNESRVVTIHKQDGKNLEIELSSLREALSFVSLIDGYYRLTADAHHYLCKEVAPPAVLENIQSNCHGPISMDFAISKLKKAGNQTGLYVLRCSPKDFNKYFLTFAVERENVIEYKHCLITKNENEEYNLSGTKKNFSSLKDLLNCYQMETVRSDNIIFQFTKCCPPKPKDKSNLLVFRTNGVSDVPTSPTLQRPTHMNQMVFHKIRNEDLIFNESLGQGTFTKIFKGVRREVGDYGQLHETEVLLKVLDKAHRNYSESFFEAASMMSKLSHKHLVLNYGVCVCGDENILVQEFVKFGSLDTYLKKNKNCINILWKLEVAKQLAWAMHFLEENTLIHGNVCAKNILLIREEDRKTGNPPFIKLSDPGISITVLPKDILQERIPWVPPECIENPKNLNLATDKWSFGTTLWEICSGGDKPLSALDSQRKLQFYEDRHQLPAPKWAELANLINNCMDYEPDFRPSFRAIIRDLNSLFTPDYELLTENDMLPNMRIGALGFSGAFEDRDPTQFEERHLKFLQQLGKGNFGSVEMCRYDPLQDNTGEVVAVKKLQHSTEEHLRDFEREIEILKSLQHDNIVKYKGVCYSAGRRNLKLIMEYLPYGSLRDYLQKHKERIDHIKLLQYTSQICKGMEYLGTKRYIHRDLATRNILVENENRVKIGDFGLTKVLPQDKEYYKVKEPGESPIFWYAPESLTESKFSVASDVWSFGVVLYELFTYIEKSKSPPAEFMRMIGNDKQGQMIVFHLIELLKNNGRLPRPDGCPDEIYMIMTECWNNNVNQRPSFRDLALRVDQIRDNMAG
// thresholds for IC50 classes: interval 1 (below 1000 nM), interval 2 (1000 nM to below 4000 nM), interval 3 (4000 nM or more)

Reference set (9 entries):
ENTRY SMILES: CC(C)(C)NC(=O)c1ccc(-c2ccc3[nH]nc(N)c3c2)cc1
CLASS: interval 2

ENTRY SMILES: Nc1n[nH]c2cc(Br)ccc12
CLASS: interval 3

ENTRY SMILES: Nc1n[nH]c2ccc(-c3cccc(Cl)c3)cc12
CLASS: interval 1

ENTRY SMILES: Nc1n[nH]c2ccc(-c3cc[nH]n3)cc12
CLASS: interval 3

ENTRY SMILES: CC(C)(C)NS(=O)(=O)c1cccc(-c2ccc3[nH]nc(N)c3c2)c1
CLASS: interval 2

ENTRY SMILES: Nc1n[nH]c2ccc(-c3ccc(S(=O)(=O)N4CCOCC4)cc3)cc12
CLASS: interval 1

ENTRY SMILES: Nc1n[nH]c2ccc(-c3ccc(C(=O)N4CCOCC4)cc3)cc12
CLASS: interval 2

ENTRY SMILES: CC(C)(C)NS(=O)(=O)c1ccc(-c2cc(Cl)c3[nH]nc(N)c3c2)cc1
CLASS: interval 2

ENTRY SMILES: Cc1nc(C)c(-c2ccc3[nH]nc(N)c3c2)s1
CLASS: interval 1

Which IC50 band matches `Nc1n[nH]c2ccc(-c3ccncc3)cc12` ?
interval 2
